assay: Pharmacokinetic study in rat plasma after oral administration of Shenyanyihao oral solution (UPLC-MS/MS, noncompartmental); format: in vivo, Sprague-Dawley rats; details: male, Sprague-Dawley; rat plasma, oral administration of Shenyanyihao oral solution 10 g/kg/day, n = 6, mean ± SD; read-out: MRT0‐∞
readout-name: MRT (h)
Report the figure in h without appending any unit label.

Past entries and their recorded results:
>>> result_number("O=C(O)[C@H]1O[C@@H](Oc2cc3oc(-c4ccccc4)cc(=O)c3c(O)c2O)[C@H](O)[C@@H](O)[C@@H]1O [Baicalin, baicalin]")
8.71
>>> result_number("O=c1c(O[C@@H]2O[C@H](CO)[C@@H](O)[C@H](O)[C@H]2O)c(-c2ccc(O)c(O)c2)oc2cc(O)cc(O)c12 [Isoquercitrin, isoquercitrin]")
33.7
>>> result_number("O=C(/C=C/c1ccc(O)c(O)c1)O[C@@H]1C[C@](O)(C(=O)O)C[C@@H](O)[C@H]1O [Chlorogenic acid, chlorogenic acid]")
15.4
>>> result_number("O=c1cc(-c2ccccc2)oc2cc(O)c(O)c(O)c12 [Baicalein, baicalein]")
15.2

Here is the next item to consider.
Field request: MRT | item: O=C(O)c1ccc(O)c(O)c1 [Protocatechuic acid, protocatechuic acid]
6.6

----------
Catalogue of V d values
experiment: Pharmacokinetic study in rat plasma after oral administration of Shenyanyihao oral solution (UPLC-MS/MS, noncompartmental); type: in vivo, Sprague-Dawley rats; details: rat plasma, oral administration of Shenyanyihao oral solution 10 g/kg/day, n = 6, mean ± SD
Lab book: enter the figure in L/kg, no units written.

>>> result_number("O=C(O)c1ccc(O)c(O)c1")
24.09
>>> result_number("O=C(/C=C/c1ccc(O)c(O)c1)O[C@@H]1C[C@](O)(C(=O)O)C[C@@H](O)[C@H]1O")
1001.03
>>> result_number("C[N+]1(C)CCC[C@H]1C(=O)[O-] [Stachydrine, stachydrine]")
0.76

Given O=c1cc(-c2ccccc2)oc2cc(O)c(O)c(O)c12 , state its recorded V d.
131.54

So what's the measured V d for this one? O=c1c(O[C@@H]2O[C@H](CO)[C@@H](O)[C@H](O)[C@H]2O)c(-c2ccc(O)c(O)c2)oc2cc(O)cc(O)c12
127.91

Param item = O=C(O)[C@H](O)Cc1ccc(O)c(O)c1 ; retrieve measured V d.
13.67

Fill in the blank: the reported V d of O=C(/C=C/c1ccc(O)c(O)c1)O[C@H]1[C@H](O[C@@H]2O[C@H](CO)[C@@H](O)[C@H](O)[C@H]2O)[C@@H](O)[C@H](OCCc2ccc(O)c(O)c2)O[C@@H]1CO [Plantamajoside, plantamajoside] is ____.
79.97

Need V d, item O=C(O)[C@H]1O[C@@H](Oc2cc3oc(-c4ccccc4)cc(=O)c3c(O)c2O)[C@H](O)[C@@H](O)[C@@H]1O
12.89

----------
test: Pharmacokinetic study in rat plasma after oral administration of Shenyanyihao oral solution (UPLC-MS/MS, noncompartmental); type: in vivo, Sprague-Dawley rats; conditions: rat plasma, oral administration of Shenyanyihao oral solution 10 g/kg/day, n = 6, mean ± SD
Known AUMC0‐∞ of a selection of compounds
Number in ng/ml∗h^2, nothing else.

Previously resolved entries follow.
>>> result_number("C[N+]1(C)CCC[C@H]1C(=O)[O-] [Stachydrine, stachydrine]")
515393.7
>>> result_number("O=c1c(O[C@@H]2O[C@H](CO)[C@@H](O)[C@H](O)[C@H]2O)c(-c2ccc(O)c(O)c2)oc2cc(O)cc(O)c12 [Isoquercitrin, isoquercitrin]")
304.35
>>> result_number("O=C(O)[C@H](O)Cc1ccc(O)c(O)c1 [Danshensu]")
2049.56

Please examine the following record next.
Fill in the blank: the reported AUMC0‐∞ of O=C(/C=C/c1ccc(O)c(O)c1)O[C@H]1[C@H](O[C@@H]2O[C@H](CO)[C@@H](O)[C@H](O)[C@H]2O)[C@@H](O)[C@H](OCCc2ccc(O)c(O)c2)O[C@@H]1CO [Plantamajoside, plantamajoside] is ____.
66.31

----------
experiment: Pharmacokinetic study in rat plasma after oral administration of Shenyanyihao oral solution (UPLC-MS/MS, noncompartmental); assay type: in vivo, Sprague-Dawley rats; details: male, Sprague-Dawley; rat plasma, oral administration of Shenyanyihao oral solution 10 g/kg/day, n = 6, mean ± SD
readout-name: half-life (min)
Write down the numeric answer in min and omit the unit.

Example compounds with recorded half-life:
>>> result_number("O=C(/C=C/c1ccc(O)c(O)c1)O[C@@H]1C[C@](O)(C(=O)O)C[C@@H](O)[C@H]1O")
1000
>>> result_number("O=c1c(O[C@@H]2O[C@H](CO)[C@@H](O)[C@H](O)[C@H]2O)c(-c2ccc(O)c(O)c2)oc2cc(O)cc(O)c12")
1580

If you can, please state the reported half-life value of O=C(O)c1ccc(O)c(O)c1 .
681

Quick check: half-life of O=c1cc(-c2ccccc2)oc2cc(O)c(O)c(O)c12 ?
703

Bench note: what half-life did O=C(O)[C@H]1O[C@@H](Oc2cc3oc(-c4ccccc4)cc(=O)c3c(O)c2O)[C@H](O)[C@@H](O)[C@@H]1O show?
301
